Measured inhibition at 10 µM of individual entries
TARGET DESC: PDE1A (Homo sapiens (Human), UniProt P54750)
Sequence (P54750 whole entry): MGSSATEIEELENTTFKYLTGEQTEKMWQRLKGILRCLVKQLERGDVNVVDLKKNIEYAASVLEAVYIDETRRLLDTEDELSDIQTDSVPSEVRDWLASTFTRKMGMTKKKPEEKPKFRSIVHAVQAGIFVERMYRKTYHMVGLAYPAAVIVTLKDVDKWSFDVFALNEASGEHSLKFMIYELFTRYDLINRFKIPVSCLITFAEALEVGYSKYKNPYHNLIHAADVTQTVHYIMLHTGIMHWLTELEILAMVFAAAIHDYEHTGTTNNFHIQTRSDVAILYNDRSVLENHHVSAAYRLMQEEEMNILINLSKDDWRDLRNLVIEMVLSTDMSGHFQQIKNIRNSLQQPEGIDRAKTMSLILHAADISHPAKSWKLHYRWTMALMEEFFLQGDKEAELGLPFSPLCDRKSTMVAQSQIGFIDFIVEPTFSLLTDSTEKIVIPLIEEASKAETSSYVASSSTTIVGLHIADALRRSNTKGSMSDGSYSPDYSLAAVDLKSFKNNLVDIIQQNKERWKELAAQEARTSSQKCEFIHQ
EXPERIMENT DESCRIPTION: PDE1 inhibition assay, PDE1A
Format: biochemical
MEASUREMENT PARAMETERS: read-out: PDE1A, % inhibition (at 10 μM)
State just the number; it will be interpreted in %.

Field: example entries. Status: answers known.
COMPOUND: Cc1cc(Cn2c(C)cn3c(C4CCOCC4)ncc3c2=O)no1
inhibition at 10 µM, %: 67

COMPOUND: Cc1cn2c(C3CCOCC3)ncc2c(=O)n1Cc1cscn1
inhibition at 10 µM, %: 72

COMPOUND: Cc1noc(C)c1Cn1c(C)cn2c(C3CCOCC3)ncc2c1=O
inhibition at 10 µM, %: 27

COMPOUND: Cc1cn2c(C3CCOCC3)ncc2c(=O)n1C(C)C
inhibition at 10 µM, %: 4

COMPOUND: Cc1cn2c(C3CCOCC3)ncc2c(=O)n1C
inhibition at 10 µM, %: 58

Problem: Item: COc1ccc(Cn2c(C)cn3c(C4COC(C)C4)ncc3c2=O)cc1 (stereo not drawn) Test system: PDE1A (Homo sapiens (Human), UniProt P54750) Read-out: inhibition at 10 µM Value: ?
Result: 65
